# System: SK-OV-3 ovarian
# assay_overview: NCI tumour cell line growth inhibition, 48 h
experimental_readout: TGI (µM)

• CCC(C)N1CN(c2ccccc2)C2(CCN(CCCC(=O)c3ccc(F)cc3)CC2)C1=O (stereo not given) = 21.5
• COc1cccc2cc(N(C)c3nc(C)nc4ccsc34)ccc12 = 35.8
• C=C(CN(CCN1CCOCC1)CC(=C)c1ccc(C(=O)Nc2ccccc2N)cc1)c1ccc(C(=O)Nc2ccccc2N)cc1 = 17.2

----------
# Tested on: MALME-3M melanoma
# assay_overview: NCI tumour cell line growth inhibition, 48 h
experimental_readout: TGI (µM)

* CN1CCN(c2ccc3nc(-c4ccc5nc(-c6ccc(N(C)CCCl)cc6)[nH]c5c4)[nH]c3c2)CC1 | 0.41
* O=C(Nn1c2c(sc1=NC1CC1)C(=O)c1ccccc1C2=O)c1cc2ccc1CCc1ccc(cc1)CC2 | 1.75
* CCC(C)N1CN(c2ccccc2)C2(CCN(CCCC(=O)c3ccc(F)cc3)CC2)C1=O (centres undefined) | 27.8
* Cc1sc2c(c1C)C(c1ccc(Cl)cc1)=N[C@@H](CC(=O)Nc1ccc(O)cc1)c1nnc(C)n1-2 | 33.4
* COc1ccc(NCc2c(O)ccc3ccccc23)cc1 | 38.8
* O=C(Nc1ccc([N+](=O)[O-])cc1)c1cc2ccccc2cc1O | 1.11

----------
# Test system: CCRF-CEM leukemia
# assay_overview: NCI tumour cell line growth inhibition, 48 h; in the data active = GI50 below about 0.43 µM; inactive = the rest
Classes used: T (active), F (inactive)

* O=C1/C(=C/c2ccc(C(F)(F)F)cc2)COc2ccc(O)cc21 | T
* CC(=O)[CH-]C(=O)c1ccccc1.CC(=O)[CH-]C(=O)c1ccccc1.CC12CC3(C)CC(C)(C1)CC([O-])(C2)C3.CC[O-].[Ti+4] | F
* CO[C@H]1/C=C/C[C@H](C)[C@@H](C)S(=O)(=O)NC(=O)c2ccc3c(c2)N(C[C@@H]2CC[C@H]21)C[C@@]1(CCCc2cc(Cl)ccc21)CO3 | F
* COc1cc(C(=O)/C=C/c2c(-c3cccs3)nc3ccccn23)cc(OC)c1OC | F
* CSc1ccc(C(=O)/C=C/c2ccc(F)cc2)cc1 | F
* COc1ccc2nc(C3=CN(C4OC(CO)C(O)C(O)C4O)C4C=CC=CC34)sc2c1 (configuration not stated) | F
* c1ccc([P+](CCC[P+](c2ccccc2)(c2ccccc2)c2ccccc2)(c2ccccc2)c2ccccc2)cc1 | F
* O=C(/C=C\c1ccc(OCCCCCC[P+](c2ccccc2)(c2ccccc2)c2ccccc2)cc1)c1ccc2c(c1)OCCO2 | F
* ClC1=C(Cl)C(Cl)=C(Cl)C1=Cc1ccc(Cl)cc1Cl | T
* Cc1[nH]ccc2cc3nc4ccccc4c3cc12 | F
* O=C(Nc1ccc([N+](=O)[O-])cc1)c1cc2ccccc2cc1O | F
* C=CC1=C(C)C(Cc2[nH]c(/C=c3\[nH]/c(=C/C4=NC(=O)C(C)/C4=C\C)c(C)c3CCC(=O)O)c(CCC(=O)OC)c2C)NC1=O (configuration not stated) | F

----------
TGI listing for selected molecules.
# Test system: DMS 114 small cell lung
# assay_overview: NCI tumour cell line growth inhibition, 48 h
experimental_readout: TGI

• COC(=O)NN=C1C(C)(C)C(=NNC(=O)OC)C1(C)C = > 56.7 µM
• O=C(Cc1ccccc1)NN1C(=O)C(Cl)C1c1ccccc1 (stereo unspecified) = > 100 µM
• N=C(N)Cn1cnc2ccccc21 = > 100 µM
• C/C(CC(=O)Nc1ccc(NC(=O)/C(C)=N/NS(=O)(=O)c2ccc(C)cc2)cc1)=N\NS(=O)(=O)c1ccc(C)cc1 = > 100 µM
• NC(=O)N/N=C1/CCCC/C1=C\c1ccccc1 = > 100 µM
• O=C(Nc1cc([N+](=O)[O-])cc([N+](=O)[O-])c1)OC1C2CCC1C1OC1C2 (stereo unspecified) = > 50 µM
• CN(/C(=N\O)c1ccccc1)c1ccccc1 = 86.1 µM
• COc1ccc2c(c1)Cc1c-2[nH]c2cc3c(cc2c1=O)OCO3 = 17.9 µM
• CC1=NN(C(=O)c2ccccc2)C(=O)C1N=Nc1ccccc1C(=O)O (stereo unspecified) = > 100 µM
• O=C(O)C1=C(Cl)c2ccccc2S1(=O)=O = > 100 µM
• C[C@@]1(CBr)C[C@@](C)(/C=C/Cl)[C@@H](Cl)C[C@H]1Cl = 25.3 µM

----------
# System: HT29 colon
# assay_overview: NCI tumour cell line growth inhibition, 48 h
experimental_readout: TGI (µM)

* C=C(C)C1CCC2(CO)C(O)CC3(C)C(CCC4C5(C)CCC(O)C(C)(C)C5CCC43C)C12 (stereo unspecified) | 54.7
* C[C@@]1(CBr)C[C@@](C)(/C=C/Cl)[C@@H](Cl)C[C@H]1Cl | 22.4
* CCCCCCCCC[C@@H]1C[C@@H]2CCC3C(C(=O)OCCCCNC(=O)OCc4ccccc4)=C(C)NC(=N1)N32 (stereo partly specified) | 12.9
* O/N=C1/C(=C/c2ccc(Cl)cc2)CCCC1C(NO)c1ccc(Cl)cc1 (stereo unspecified) | 36.6
* O=C1CSC(c2c(O)ccc3ccccc23)N1n1c(=S)[nH]nc(/C=C/c2c(O)ccc3ccccc23)c1=O (stereo unspecified) | 36.6
* OCCCCC#Cc1ccccc1C#Cc1cccs1 | 27.6
* CCNC(=O)CCCCC(=O)c1c(C)[nH]c(/C=C2\N=C(c3ccc[nH]3)C=C2OC)c1C | 7.68
* CCC(C)N1CN(c2ccccc2)C2(CCN(CCCC(=O)c3ccc(F)cc3)CC2)C1=O (stereo unspecified) | 2.35
* COc1ccc2c(c1)Cc1c-2[nH]c2cc3c(cc2c1=O)OCO3 | 19.9
* CC(=O)Oc1cc(OC(C)=O)c2cc3c(cc2c1OC(C)=O)C(=O)C1(CCCC1)C3=O | 30

----------
# Tested on: SF-539 CNS
# assay_overview: NCI tumour cell line growth inhibition, 48 h
Reported TGI values follow for various compounds
experimental_readout: TGI

• S=C1NC2=C(COC/C2=C\c2ccccc2Cl)C(c2ccccc2Cl)N1 (stereo not given) = > 100 µM
• CN1CCN(c2ccc3nc(-c4ccc5nc(-c6ccc(N(C)CCCl)cc6)[nH]c5c4)[nH]c3c2)CC1 = 0.462 µM
• CCOC(=S)SC/C(=N\OC(C)(C)OC)c1ccccc1 = > 100 µM
• COC(=O)Nc1nc2ccc(NS(=O)(=O)c3ccc(F)cc3)cc2[nH]1 = 52.9 µM
• COc1ccc2c(c1)-c1c(c3ccccc3n1CCN1CCOCC1)CC2 = 52.4 µM

----------
# System: A498 renal
# assay_overview: NCI tumour cell line growth inhibition, 48 h
Where a SMILES comes first, the peptide text is derived from it. Side-chain parts run from the residue outwards. The star is where a group is joined. Cbz = O=C(OCc1ccccc1)*; Boc = CC(C)(C)OC(=O)*
This section presents molecules with their documented TGI values.
experimental_readout: TGI

- O=C1CSC(c2c(O)ccc3ccccc23)N1n1c(=S)[nH]nc(/C=C/c2c(O)ccc3ccccc23)c1=O (stereo unspecified): 18.4 µM
- CCC(C)c1cnc(CC(C)C)c(=O)[nH]1 (stereo unspecified): > 100 µM
- C=CC1=C(C)C(Cc2[nH]c(/C=c3\[nH]/c(=C/C4=NC(=O)C(C)/C4=C\C)c(C)c3CCC(=O)O)c(CCC(=O)OC)c2C)NC1=O (stereo unspecified): > 100 µM
- Cc1ccc(N2C(=O)C(O)=C(C(=O)C(C)(C)C)C2c2ccc([N+](=O)[O-])cc2)cc1 (stereo unspecified): 68.9 µM
- COC(=O)C1CCC(N2C(=O)CCC2C(=O)OC)=N1 (stereo unspecified): > 100 µM
- CC(C)CC(NC(=O)OCc1ccccc1)C(=O)NCCCCC(NC(=O)C(CCCCNC(=O)C(CC(C)C)NC(=O)OCc1ccccc1)NC(=O)C(CCCCNC(=O)C(CC(C)C)NC(=O)OCc1ccccc1)NC(=O)C(CCCCNC(=O)C(CC(C)C)NC(=O)OCc1ccccc1)NC(=O)OC(C)(C)C)C(=O)O (stereo unspecified) (Boc-K([Leu-Cbz])K([Leu-Cbz])K([Leu-Cbz])K([Leu-Cbz])-OH; configuration not given here): > 25 µM

----------
# System: CAKI-1 renal
# assay_overview: NCI tumour cell line growth inhibition, 48 h
experimental_readout: TGI

* C[C@@]1(CBr)C[C@@](C)(/C=C/Cl)[C@@H](Cl)C[C@H]1Cl | 31.7 µM
* CN(c1ccccc1Cl)S(=O)(=O)c1ccccc1 | > 100 µM
* O/N=C1/C(=C/c2ccc(Cl)cc2)CCCC1C(NO)c1ccc(Cl)cc1 (stereo not given) | 53.5 µM
* CCOC(=O)C1CCn2c(nc3c(=O)n(C)c(=O)n(C)c32)S1 (stereo not given) | > 100 µM
* COC(=O)C1=C2CO[C@@H]3C[C@H]4C(C)(C)CCC[C@]4(C)C(=CC1)[C@]23C | 52.1 µM
* Cc1cc(NS(=O)(=O)c2ccc(NC(=O)c3cccc4c(NNc5ccc(S(N)(=O)=O)cc5)c5ccccc5nc34)cc2)no1 | > 100 µM
* O=C(Nn1c2c(sc1=NC1CC1)C(=O)c1ccccc1C2=O)c1cc2ccc1CCc1ccc(cc1)CC2 | 14.9 µM
* CSc1ccc(C(=O)/C=C/c2ccc(F)cc2)cc1 | > 100 µM
* O=C(Nc1ccc(Cl)cc1)c1cc(S(=O)(=O)NC2=NC(c3ccccc3)c3cc(Cl)ccc3N2)c(SSc2cc(Cl)c(C(=O)Nc3ccc(Cl)cc3)cc2S(=O)(=O)NC2=NC(c3ccccc3)c3cc(Cl)ccc3N2)cc1Cl (stereo not given) | > 100 µM
* Cc1ccc(C(=O)Nc2ccccc2C(=O)N/N=C(\c2ccccc2)c2ccccn2)cc1 | > 100 µM
